Experimental system: KEAP1 (Kelch domain, WT) (Homo sapiens, UniProt Q14145)
Construct: Kelch domain of KEAP1 (Lys312-Cys624)
Sequence (Q14145 312-624): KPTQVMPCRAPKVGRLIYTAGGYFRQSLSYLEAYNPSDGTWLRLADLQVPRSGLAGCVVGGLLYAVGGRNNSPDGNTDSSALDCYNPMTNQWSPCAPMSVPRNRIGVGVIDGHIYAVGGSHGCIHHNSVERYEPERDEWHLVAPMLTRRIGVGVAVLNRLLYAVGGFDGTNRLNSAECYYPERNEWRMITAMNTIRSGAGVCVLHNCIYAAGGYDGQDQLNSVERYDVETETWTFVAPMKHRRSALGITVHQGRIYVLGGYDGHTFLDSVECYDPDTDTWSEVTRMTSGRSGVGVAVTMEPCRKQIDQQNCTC
Experimental details: BLI with purified biotinylated Kelch (also HDX-MS, CETSA in GES-1 cells, pull-down and SPR disruption of KEAP1-NRF2)
Value kind: Kd
The reply should read as a number followed by its unit.

Query block: Which Kd is listed for COc1cc(CNC(=O)CCCC/C=C/C(C)C)ccc1O ?
Result block: 31.5 µM

###

Experimental system: KEAP1 (mutant Kelch domain) (Homo sapiens, UniProt Q14145, N382A/N414A/R380A/R415A/S602A/Y334A/Y572A)
Construct: Kelch domain of KEAP1 (Lys312-Cys624)
Sequence (Q14145 312-624 Y334A/R380A/N382A/N414A/R415A/Y572A/S602A): as the sequence (Q14145 312-624) above, with Y23A, R69A, N71A, N103A, R104A, Y261A, S291A counted along it
Experimental details: BLI with purified biotinylated mutant Kelch
Value kind: pKd
One number for each entry, as −log10 of the molar value.

Query block: Which pKd is listed for COc1cc(CNC(=O)CCCC/C=C/C(C)C)ccc1O [CAP, capsaicin] ?
Result block: 3.99
